Where do these numbers come from? They come from patent US20250188094A1.

Measured Target: PKMYT1 (Homo sapiens (Human), UniProt Q99640)
Sequence (Q99640 whole entry, species assumed): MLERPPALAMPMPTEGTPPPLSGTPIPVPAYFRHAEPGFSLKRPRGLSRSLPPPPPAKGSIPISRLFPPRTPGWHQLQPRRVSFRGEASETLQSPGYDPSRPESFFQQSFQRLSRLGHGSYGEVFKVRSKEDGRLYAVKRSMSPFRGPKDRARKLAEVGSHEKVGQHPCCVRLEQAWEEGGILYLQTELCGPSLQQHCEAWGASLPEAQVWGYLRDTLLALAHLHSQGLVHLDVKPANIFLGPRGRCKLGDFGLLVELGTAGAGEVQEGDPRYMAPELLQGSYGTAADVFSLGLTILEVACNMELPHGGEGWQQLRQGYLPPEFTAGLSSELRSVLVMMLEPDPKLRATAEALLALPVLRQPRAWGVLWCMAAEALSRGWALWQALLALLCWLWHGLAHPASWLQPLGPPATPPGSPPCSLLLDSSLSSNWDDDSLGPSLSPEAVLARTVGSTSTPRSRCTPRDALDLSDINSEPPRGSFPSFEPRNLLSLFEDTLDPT
Measured Attribute: IC50

As a guide, the following entries are already answered.
Item Smiles	Result
Cc1ccc(O)c(C)c1-n1nc(-c2ccn(C(F)F)n2)c(C(N)=O)c1N	< 10 nM
Cc1ccc(O)c(C)c1-n1nc(-c2ncc3n2CCCC3)c(C(N)=O)c1N	50 to 500 nM
Cc1csc(-c2nn(-c3c(C)ccc(O)c3C)c(N)c2C(N)=O)n1	< 10 nM

Query string: Using the record for Cc1cnc(-c2nn(-c3c(C)ccc(O)c3C)c(N)c2C(N)=O)s1 , report its IC50.
Result string: < 10 nM

Query string: Using the record for Cc1ccc(O)c(C)c1-n1nc(-c2ccn(CC(C)(C)O)n2)c(C(N)=O)c1N , report its IC50.
Result string: 50 to 500 nM

----------
IC50, WEE1 (Homo sapiens (Human), UniProt P30291), per-entry values.

As a guide, the following entries are already answered.
Item Smiles	IC50
Cc1ccc(O)c(C)c1-n1nc(-c2nc(C(F)(F)F)cs2)c(C(N)=O)c1N	50 to 500 nM
Cc1ccc(O)c(C)c1-n1nc(-c2ccn(CC(C)(C)O)n2)c(C(N)=O)c1N	> 5000 nM
Cc1ccc(O)c(C)c1-n1nc(-c2ccc(C(F)(F)F)cn2)c(C(N)=O)c1N	500 to 5000 nM

Query string: Using the record for Cc1c(O)ccc(Cl)c1-n1nc(-c2nccs2)c(C(N)=O)c1N , report its IC50.
Result string: 50 to 500 nM

----------
pIC50: −log10 of the molar value.
pIC50, PKMYT1 (Homo sapiens (Human)), per-entry values.

As a guide, the following entries are already answered.
Compound	Measured Attribute	Result
Cc1ccc(O)c(C)c1-n1nc(-c2nccs2)c(C(N)=O)c1N [Example 1]	pIC50	> 8.00
Cc1c(O)ccc(Cl)c1-n1nc(-c2nccs2)c(C(N)=O)c1N [Example 6]	pIC50	> 8.00
Cc1ccc(O)c(C)c1-n1nc(-c2nc(C(F)(F)F)cs2)c(C(N)=O)c1N [Example 3]	pIC50	> 8.00

Query string: Give PKMYT1 (Homo sapiens (Human)) pIC50 for Cc1ccc(O)c(C)c1-n1nc(-c2ccc(C(F)(F)F)cn2)c(C(N)=O)c1N [Example 10]
Result string: 7.30 to 8.00
